- SYSTEM NAME: T1, anti-CD28 Fab (SEQ ID NOs: 202, 203)
- T1 construct: biotinylated and captured on neutravidin coated plates in the phage ELISA
- T1 sequence (VH, as listed by the source, chain 1 of 2): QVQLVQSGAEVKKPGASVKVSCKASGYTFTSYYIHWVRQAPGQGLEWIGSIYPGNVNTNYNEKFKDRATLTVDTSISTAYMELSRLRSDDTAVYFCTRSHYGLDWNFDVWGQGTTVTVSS
- T1 sequence (VL, as listed by the source, chain 2 of 2): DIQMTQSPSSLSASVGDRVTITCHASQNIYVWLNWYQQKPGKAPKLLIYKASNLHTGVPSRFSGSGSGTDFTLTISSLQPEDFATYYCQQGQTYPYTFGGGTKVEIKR
- PROTOCOL: phage ELISA on captured Fab;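 note: ELISA with clonal phage supernatants added to wells preincubated with CD28 antigen or with blocking buffer only, bound phage detected by HRP-conjugated anti-M13 antibody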
MEASUREMENT NAME: Anti-CD28 Fab (SEQ ID NOs: 202, 203) signal

[[record]]
binder = "YCEGHVLEYRGKCD (on phage, pIII fusion) [Phage-576]"
endpoint_result = 1.48

[[record]]
binder = "YCAGHSEEYMDKCL (on phage, pIII fusion) [Phage-539]"
endpoint_result = 1.55

[[record]]
binder = "YCEGHRPEYMQKCV (on phage, pIII fusion) [Phage-574]"
endpoint_result = 1.48

[[record]]
binder = "YCAGHNAQYMSKCL (on phage, pIII fusion) [Phage-545]"
endpoint_result = 1.55

[[record]]
binder = "YCDGHSPAYIWKCL (on phage, pIII fusion) [Phage-450]"
endpoint_result = 1.68

[[record]]
binder = "YCDGHATEYMQKCL (on phage, pIII fusion) [Phage-484]"
endpoint_result = 1.64

[[record]]
binder = "YCDGHLLEYMSKCL (on phage, pIII fusion) [Phage-582]"
endpoint_result = 1.46

[[record]]
binder = "YCDGHLALHMKKCL (on phage, pIII fusion) [Phage-569]"
endpoint_result = 1.49

[[record]]
binder = "YCDGHLSEYMSKCL (on phage, pIII fusion) [Phage-498]"
endpoint_result = 1.62

[[record]]
binder = "YCEGHDLIYMWKCL (on phage, pIII fusion) [Phage-488]"
endpoint_result = 1.63

[[record]]
binder = "YCDGHSQEYMEKCL (on phage, pIII fusion) [Phage-564]"
endpoint_result = 1.5

[[record]]
binder = "YCDGHSPLYMVKCL (on phage, pIII fusion) [Phage-537]"
endpoint_result = 1.56

[[record]]
binder = "YCDGHLQIYMGKCL (on phage, pIII fusion) [Phage-552]"
endpoint_result = 1.53

[[record]]
binder = "YCDGHTSEYMTKCL (on phage, pIII fusion) [Phage-546]"
endpoint_result = 1.54

[[record]]
binder = "YCDGHLPEYLAKCL (on phage, pIII fusion) [Phage-555]"
endpoint_result = 1.52

[[record]]
binder = "YCEGHSVEYIGKCL (on phage, pIII fusion) [Phage-521]"
endpoint_result = 1.59

[[record]]
binder = "YCEGHSEEFMSKCL (on phage, pIII fusion) [Phage-532]"
endpoint_result = 1.57

[[record]]
binder = "YCDGHSVEYKLKCM (on phage, pIII fusion) [Phage-509]"
endpoint_result = 1.61

[[record]]
binder = "YCEGHLPQYMVKCL (on phage, pIII fusion) [Phage-527]"
endpoint_result = 1.58

[[record]]
binder = "YCAGHLEEYMWKCL (on phage, pIII fusion) [Phage-559]"
endpoint_result = 1.51

[[record]]
binder = "YCDGHSVEYMEKCL (on phage, pIII fusion) [Phage-476]"
endpoint_result = 1.65

[[record]]
binder = "YCAGHAPEYMSKCL (on phage, pIII fusion) [Phage-489]"
endpoint_result = 1.63

[[record]]
binder = "YCDGHNFQYMEKCL (on phage, pIII fusion) [Phage-598]"
endpoint_result = 1.44

[[record]]
binder = "YCDGHSQAHMQKCL (on phage, pIII fusion) [Phage-542]"
endpoint_result = 1.55

[[record]]
binder = "YCDGHAEEYLLKCL (on phage, pIII fusion) [Phage-529]"
endpoint_result = 1.57

[[record]]
binder = "YCAGHAAEYMTKCL (on phage, pIII fusion) [Phage-475]"
endpoint_result = 1.65

[[record]]
binder = "YCEGHTPVYMPKCL (on phage, pIII fusion) [Phage-585]"
endpoint_result = 1.46

[[record]]
binder = "YCDGHLPVYMMKCL (on phage, pIII fusion) [Phage-544]"
endpoint_result = 1.55

[[record]]
binder = "YCDGHSREYMNKCL (on phage, pIII fusion) [Phage-469]"
endpoint_result = 1.66

[[record]]
binder = "YCEGHADEYMWKCL (on phage, pIII fusion) [Phage-520]"
endpoint_result = 1.59

[[record]]
binder = "YCDGHSAEYLSKCL (on phage, pIII fusion) [Phage-561]"
endpoint_result = 1.51

